Some compounds, each annotated with its measured MIC.
# Tested on: Aspergillus fumigatus
# test name: Antifungal activity against Aspergillus fumigatus by broth dilution method
# Type: functional
Starred links: 1 amine or outer side, 2 acyl side, 3 side chain; linkers in the order of their positions; H or OH if unused. Non-standard residues stand in square brackets, D forms with d. Residues, ends and D or L forms follow the SMILES beside them. X10 = CCCCCC/C=C/c1cccc(C[C@@H](C(=O)[*:2])N(C)[*:1])c1; X11 = CN([C@@H](Cc1ccc(-c2cccnc2)cc1)C(=O)[*:2])[*:1]; NMePhe(3-I) = CN[C@@H](Cc1cccc(I)c1)C(=O)O; Hmp(2R,3S) = CC[C@H](C)[C@@H](O)C(=O)O; NMeVal(β-OH) = CN[C@H](C(=O)O)C(C)(C)O; NMeV = CN[C@H](C(=O)O)C(C)C

Please review the entries below; each comes with its answer.
{"compound": "CC[C@H](C)[C@@H]1NC(=O)[C@@H]2CCCN2C(=O)[C@H](Cc2cccc(I)c2)N(C)C(=O)[C@H](Cc2ccccc2)NC(=O)[C@H](C(C)C)N(C)C(=O)[C@@H]([C@@H](C)CC)OC(=O)[C@H](C(C)(C)O)N(C)C(=O)[C@H](CC(C)C)NC(=O)[C@H](C(C)C)N(C)C1=O (cyclo(F[NMePhe(3-I)]PI[NMeV]L[NMeVal(β-OH)][Hmp(2R,3S)][NMeV]))", "MIC": "> 5 µg/mL"}
{"compound": "CC[C@H](C)[C@@H]1NC(=O)[C@@H]2CCCN2C(=O)[C@H](Cc2ccc(-c3cccnc3)cc2)N(C)C(=O)[C@H](Cc2ccccc2)NC(=O)[C@H](C(C)C)N(C)C(=O)[C@@H]([C@@H](C)CC)OC(=O)[C@H](C(C)(C)O)N(C)C(=O)[C@H](CC(C)C)NC(=O)[C@H](C(C)C)N(C)C1=O (cyclo(F[X11]PI[NMeV]L[NMeVal(β-OH)][Hmp(2R,3S)][NMeV]))", "MIC": "< 2.5 µg/mL"}

Problem: Fill in the recorded MIC for this compound, with Aspergillus fumigatus as test system: CCCCCC/C=C/c1cccc(C[C@H]2C(=O)N3CCC[C@H]3C(=O)N[C@@H]([C@@H](C)CC)C(=O)N(C)[C@@H](C(C)C)C(=O)N[C@@H](CC(C)C)C(=O)N(C)[C@@H](C(C)(C)O)C(=O)O[C@H]([C@@H](C)CC)C(=O)N(C)[C@@H](C(C)C)C(=O)N[C@@H](Cc3ccccc3)C(=O)N2C)c1 (cyclo(F[X10]PI[NMeV]L[NMeVal(β-OH)][Hmp(2R,3S)][NMeV]))
Solution: > 5 µg/mL
